ASSAY PROTOCOL: Plasma pharmacokinetics in NSG mice after single IP dose of TRX-COBI
Assay type: in vivo
RECORDED CONDITIONS: NSG, mouse, plasma, ip, 15 mg/kg
ATTRIBUTE MEASURED: AUC(0-inf)

I'd like to know its AUC(0-inf). The compound in question is O=C(c1ccc(F)c(F)c1Nc1ccc(I)cc1F)N1CC(O)([C@@H]2CCCCN2C(=O)O[C@@H]2CCC[C@]3(C2)OOC2(O3)C3CC4CC(C3)CC2C4)C1 (stereo partly shown) [TRX-COBI]
6460 ng·h/mL
